target: Chymotrypsin, from human pancreas (human, UniProt P17538 19-263); test: cell-based or functional assay
Sequence (P17538 19-263): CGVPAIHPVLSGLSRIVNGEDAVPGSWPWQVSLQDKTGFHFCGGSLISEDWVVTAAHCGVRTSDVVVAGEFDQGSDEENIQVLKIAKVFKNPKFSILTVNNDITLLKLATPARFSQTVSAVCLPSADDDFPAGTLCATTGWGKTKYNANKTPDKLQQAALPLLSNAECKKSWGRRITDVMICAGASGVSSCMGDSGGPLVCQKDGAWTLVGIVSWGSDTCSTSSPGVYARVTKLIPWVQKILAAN
Bridges are numbered along the chain shown (N, C = ends). [ ]: non-standard residue; d: D form. Pro(5R-Ph) = O=C(O)[C@@H]1CC[C@H](c2ccccc2)N1; AlloThr = allo threonine
Exercise: state measured % inhibition at 100 µM for each of the binders provided.

GET /value?item= cyclo(FCTKSDPPICS[dP][Pro(5R-Ph)]) (disulfide 2-10) [Example 48] &field=% inhibition at 100 µM returns 3%

According to the records, this binder ICTKSDPPQCR (HELM PEPTIDE1{I.C.T.K.S.D.P.P.Q.C.R.[dP].P}$PEPTIDE1,PEPTIDE1,2:R3-10:R3|PEPTIDE1,PEPTIDE1,1:R1-13:R2$$$V2.0; SMILES CC[C@H](C)[C@@H]1NC(=O)[C@@H]2CCCN2C(=O)[C@H]2CCCN2C(=O)[C@H](CCCNC(=N)N)NC(=O)[C@@H]2CSSC[C@H](NC1=O)C(=O)N[C@@H]([C@@H](C)O)C(=O)N[C@@H](CCCCN)C(=O)N[C@@H](CO)C(=O)N[C@@H](CC(=O)O)C(=O)N1CCC[C@H]1C(=O)N1CCC[C@H]1C(=O)N[C@@H](CCC(N)=O)C(=O)N2) [Example 55] displays % inhibition at 100 µM of 16%

Entry under test: FCTKSEPPICS (HELM PEPTIDE1{F.C.T.K.S.E.P.P.I.C.S.[dP].P}$PEPTIDE1,PEPTIDE1,2:R3-10:R3|PEPTIDE1,PEPTIDE1,1:R1-13:R2$$$V2.0; SMILES CC[C@H](C)[C@@H]1NC(=O)[C@@H]2CCCN2C(=O)[C@@H]2CCCN2C(=O)[C@H](CCC(=O)O)NC(=O)[C@H](CO)NC(=O)[C@H](CCCCN)NC(=O)[C@H]([C@@H](C)O)NC(=O)[C@@H]2CSSC[C@H](NC1=O)C(=O)N[C@@H](CO)C(=O)N1CCC[C@@H]1C(=O)N1CCC[C@H]1C(=O)N[C@@H](Cc1ccccc1)C(=O)N2) [Example 21] . Its % inhibition at 100 µM was 2.6%

# % inhibition at 100 µM (binder: FCTXSDPPICY (HELM PEPTIDE1{F.C.T.[Nle].S.D.P.P.I.C.Y.[dP].P}$PEPTIDE1,PEPTIDE1,2:R3-10:R3|PEPTIDE1,PEPTIDE1,1:R1-13:R2$$$V2.0; SMILES CCCC[C@@H]1NC(=O)[C@H]([C@@H](C)O)NC(=O)[C@@H]2CSSC[C@H](NC(=O)[C@H]([C@@H](C)CC)NC(=O)[C@@H]3CCCN3C(=O)[C@@H]3CCCN3C(=O)[C@H](CC(=O)O)NC(=O)[C@H](CO)NC1=O)C(=O)N[C@@H](Cc1ccc(O)cc1)C(=O)N1CCC[C@@H]1C(=O)N1CCC[C@H]1C(=O)N[C@@H](Cc1ccccc1)C(=O)N2) [Example 60] ) is 4%

Lab book: % inhibition at 100 µM of ICTKSDPPQCR (HELM PEPTIDE1{I.C.T.K.S.D.P.P.Q.C.R.[dP].P}$PEPTIDE1,PEPTIDE1,2:R3-10:R3|PEPTIDE1,PEPTIDE1,1:R1-13:R2$$$V2.0; SMILES CC[C@H](C)[C@@H]1NC(=O)[C@@H]2CCCN2C(=O)[C@H]2CCCN2C(=O)[C@H](CCCNC(=N)N)NC(=O)[C@@H]2CSSC[C@H](NC1=O)C(=O)N[C@@H]([C@@H](C)O)C(=O)N[C@@H](CCCCN)C(=O)N[C@@H](CO)C(=O)N[C@@H](CC(=O)O)C(=O)N1CCC[C@H]1C(=O)N1CCC[C@H]1C(=O)N[C@@H](CCC(N)=O)C(=O)N2) [Example 17] noted as 16%

According to the records, this binder XCTKSDPPICS (HELM PEPTIDE1{[O=C([C@@H](N[*:1])C1CCCCC1)[*:2]].C.T.K.S.D.P.P.I.C.S.[dP].P}$PEPTIDE1,PEPTIDE1,2:R3-10:R3|PEPTIDE1,PEPTIDE1,1:R1-13:R2$$$V2.0; SMILES CC[C@H](C)[C@@H]1NC(=O)[C@@H]2CCCN2C(=O)[C@@H]2CCCN2C(=O)[C@H](CC(=O)O)NC(=O)[C@H](CO)NC(=O)[C@H](CCCCN)NC(=O)[C@H]([C@@H](C)O)NC(=O)[C@@H]2CSSC[C@H](NC1=O)C(=O)N[C@@H](CO)C(=O)N1CCC[C@@H]1C(=O)N1CCC[C@H]1C(=O)N[C@@H](C1CCCCC1)C(=O)N2) [Example 11] displays % inhibition at 100 µM of 73.6%

Lab note: YCTKSDPPICY (HELM PEPTIDE1{Y.C.T.K.S.D.P.P.I.C.Y.[dP].P}$PEPTIDE1,PEPTIDE1,2:R3-10:R3|PEPTIDE1,PEPTIDE1,1:R1-13:R2$$$V2.0; SMILES CC[C@H](C)[C@@H]1NC(=O)[C@@H]2CCCN2C(=O)[C@@H]2CCCN2C(=O)[C@H](CC(=O)O)NC(=O)[C@H](CO)NC(=O)[C@H](CCCCN)NC(=O)[C@H]([C@@H](C)O)NC(=O)[C@@H]2CSSC[C@H](NC1=O)C(=O)N[C@@H](Cc1ccc(O)cc1)C(=O)N1CCC[C@@H]1C(=O)N1CCC[C@H]1C(=O)N[C@@H](Cc1ccc(O)cc1)C(=O)N2) [Example 26] gave % inhibition at 100 µM of 2.2%

Memo: cyclo(FCTK[AlloThr]DPPICS[dP]P) (disulfide 2-10) [Example 24] , reported % inhibition at 100 µM: 1%

Data provenance: patent US20140213531A1
